Taken from PubChem BioAssay AID1159580.

# assayProcedure: chemical genetic growth profiling, strain panel (AID 1159580);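 note: tested at 20 µM; growth read once vehicle control cultures reached saturation at 30 °C; 1 = growth at the plate median or of vehicle wells; lower values mean less growth of the strain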
# details: S. cerevisiae deletion strains, growth OD, locus YKL203C, strain TOR2, hits give low values
Hit rate of the full screen: of about 5,500 compounds, about 2,000 (36%) were called active. Not shown: some 18% with an inconclusive outcome. The list shows a part of the results.
Listing: normalized growth of selected molecules
Please reply with the value in numeric form only.

CC(=O)c1ccc(Cl)c(NS(=O)(=O)c2cc(Cl)c(Cl)cc2Cl)c1 ... 0.905
Fc1cc(I)ccc1Nc1ccnc2cc(Cl)ccc12 ... 0.976
N/C(CCSc1ccc(Cl)cc1)=N/OC(=O)Nc1ccc(Cl)cc1 ... 0.14

Name the recorded normalized growth for CC1(C)CC(=O)C=C(Sc2nc3ccccc3o2)C1 . 0.99

Name the recorded normalized growth for Oc1c(Cl)cc(Cl)cc1C=Nc1nc(-c2ccc3ccccc3c2)cs1 . 0.824
